Measured values drawn from paper PMC12445222 for this set.

Substrate: ClCCCl
Test: ITC initial rates, steady-state fit with substrate inhibition
Assay type: biochemical, Xanthobacter autotrophicus
Settings: 100 mM glycine buffer, pH 8.6, 15 °C
readout name: kcat
The answer should read as a number with its unit following.

Please review the entries below; each comes with its answer.
haloalkane dehalogenase (DhlA) (Xanthobacter autotrophicus; F128L) (protein) MINAIRTPDQRFSNLDQYPFSPNYLDDLPGYPGLRAHYLDEGNSDAEDVFLCLHGEPTWSYLYRKMIPVFAESGARVIAPDFFGFGKSDKPVDEEDYTFEFHRNFLLALIERLDLRNITLVVQDWGGLLGLTLPMADPSRFKRLIIMNACLMTDPVTQPAFSAFVTQPADGFTAWKYDLVTPSDLRLDQFMKRWAPTLTEAEASAYAAPFPDTSYQAGVRKFPKMVAQRDQACIDISTEAISFWQNDWNGQTFMAIGMKDKLLGPDVMYPMKALINGCPEPLEIADAGHFVQEFGEQVAREALKHFAETE : 0.05 s⁻¹
haloalkane dehalogenase (DhlA) (Xanthobacter autotrophicus; F128L/L262I) (protein) MINAIRTPDQRFSNLDQYPFSPNYLDDLPGYPGLRAHYLDEGNSDAEDVFLCLHGEPTWSYLYRKMIPVFAESGARVIAPDFFGFGKSDKPVDEEDYTFEFHRNFLLALIERLDLRNITLVVQDWGGLLGLTLPMADPSRFKRLIIMNACLMTDPVTQPAFSAFVTQPADGFTAWKYDLVTPSDLRLDQFMKRWAPTLTEAEASAYAAPFPDTSYQAGVRKFPKMVAQRDQACIDISTEAISFWQNDWNGQTFMAIGMKDKILGPDVMYPMKALINGCPEPLEIADAGHFVQEFGEQVAREALKHFAETE : 0.36 s⁻¹

Turning now to a further record.
Given the protein haloalkane dehalogenase (DhlA) (Xanthobacter autotrophicus) (protein) MINAIRTPDQRFSNLDQYPFSPNYLDDLPGYPGLRAHYLDEGNSDAEDVFLCLHGEPTWSYLYRKMIPVFAESGARVIAPDFFGFGKSDKPVDEEDYTFEFHRNFLLALIERLDLRNITLVVQDWGGFLGLTLPMADPSRFKRLIIMNACLMTDPVTQPAFSAFVTQPADGFTAWKYDLVTPSDLRLDQFMKRWAPTLTEAEASAYAAPFPDTSYQAGVRKFPKMVAQRDQACIDISTEAISFWQNDWNGQTFMAIGMKDKLLGPDVMYPMKALINGCPEPLEIADAGHFVQEFGEQVAREALKHFAETE , what is its reported kcat?
0.27 s⁻¹
